molecular target: UniProt:Q02083
Sequence (Q02083 29-125): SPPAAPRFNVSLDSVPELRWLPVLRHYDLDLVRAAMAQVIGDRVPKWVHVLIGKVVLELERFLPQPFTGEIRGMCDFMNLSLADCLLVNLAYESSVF
Sequence (Q02083 126-359): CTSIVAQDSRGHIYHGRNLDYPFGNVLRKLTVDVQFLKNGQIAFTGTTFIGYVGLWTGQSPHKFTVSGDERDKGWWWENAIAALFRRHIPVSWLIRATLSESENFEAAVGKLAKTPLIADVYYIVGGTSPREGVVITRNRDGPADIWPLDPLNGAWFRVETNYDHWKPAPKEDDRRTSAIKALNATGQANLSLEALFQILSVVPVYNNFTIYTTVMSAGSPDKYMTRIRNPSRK
quantity.measured: IC50 (nM)

{"compound": "COc1ccc(-c2ccc(COC3CC(N=C=S)C3)nc2)cc1F (stereo not shown) [AM11095]", "quantity.measured": "IC50", "val": 20}

// provenance: paper PMC9789040
